# melting point values compiled below

{"compound": "O=C(OCc1ccccc1)c1ccccc1 [benzyl_benzoate]", "melting point": "19 °C"}
{"compound": "CS(=O)(=O)c1cccs1 [2-(methylsulfonyl)thiophene]", "melting point": "48 °C"}
{"compound": "COc1ccc2c(c1)[nH]c1c(C)nccc12 [harmine]", "melting point": "264 °C"}
{"compound": "N#Cc1ccc(O)c(Cl)c1 [3-chloro-4-hydroxybenzonitrile]", "melting point": "148 °C"}
{"compound": "CCCOC(=O)c1ccc(O)cc1 [propyl 4-hydroxybenzoate]", "melting point": "96 °C"}
{"compound": "O=C(O)c1ccccc1I [2-Iodobenzoic acid]", "melting point": "162 °C"}

----------
# melting point values compiled below
experimental readout: melting point

{"compound": "O=C1CCN(c2ccccc2)N1", "experimental readout": "melting point", "reported": "122 °C"}
{"compound": "C1CCCCCCCCCCC1 [Cyclododecane]", "experimental readout": "melting point", "reported": "61 °C"}
{"compound": "O=C1OS(=O)(=O)c2ccccc21 [2-sulfobenzoic anhydride]", "experimental readout": "melting point", "reported": "120 °C"}
{"compound": "CCCCC(=O)CC", "experimental readout": "melting point", "reported": "-37 °C"}
{"compound": "Cc1c(Cl)c(Cl)c(Cl)c(Cl)c1Cl", "experimental readout": "melting point", "reported": "225 °C"}
{"compound": "Oc1ccc2cccc(O)c2c1 [1,7-dihydroxynaphthalene]", "experimental readout": "melting point", "reported": "182 °C"}

----------
# melting point values compiled below
experimental readout: melting point (°C)

{"compound": "C#CC(C)(O)c1ccccc1 (centres undefined)", "reported": 49}
{"compound": "NS(=O)(=O)c1cc(C(=O)O)c(NCc2ccco2)cc1Cl [Furosemide]", "reported": 206}
{"compound": "COc1ccc(Cl)cc1C(=O)NCCc1ccc(S(=O)(=O)NC(=O)NC2CCCCC2)cc1 [glybenzcyclamide]", "reported": 173}
{"compound": "Brc1cc(Br)cc(Br)c1", "reported": 122}
{"compound": "NC(=O)c1cccc(Cl)c1Cl [2,3-dichlorobenzamide]", "reported": 167}
{"compound": "CN(C)[C@@H]1C(O)=C(C(N)=O)C(=O)[C@@]2(O)C(O)=C3C(=O)c4c(O)cccc4[C@@](C)(O)[C@H]3[C@H](O)[C@@H]12", "reported": 183}
{"compound": "c1ccc(Nc2ccccc2)cc1", "reported": 53}
{"compound": "OC[C@@H](O)[C@@H](O)[C@@H](O)CO", "reported": 102}
{"compound": "C[C@]12CCC(=O)C=C1CC[C@@H]1[C@@H]2C(=O)C[C@@]2(C)[C@H]1CC[C@]2(O)C(=O)CO", "reported": 222}

----------
# melting point values compiled below
experimental readout: melting point (°C)

{"compound": "O=c1[nH]c2ccccc2n1C1CCN(CCCC(c2ccc(F)cc2)c2ccc(F)cc2)CC1 [Pimozide]", "reported": 216}
{"compound": "O=[N+]([O-])c1ccc(CS(=O)(=O)Cl)cc1 [4-nitro-alpha-toluenesulfonyl chloride]", "reported": 92}
{"compound": "Brc1cccnc1 [3-bromopyridine]", "reported": -27}
{"compound": "O=S(=O)(O)C(F)(F)F [trifluoromethanesulfonic acid]", "reported": -40}
{"compound": "O=C(O)c1ccc(O)cc1O [2,4-Dihydroxybenzoic Acid]", "reported": 226}

Source: the Bradley open melting point set (2014)
